Values were extracted from patent EP1115693B9.

Molecular target: CETP (Homo sapiens)
Sequence (P11597 18-493): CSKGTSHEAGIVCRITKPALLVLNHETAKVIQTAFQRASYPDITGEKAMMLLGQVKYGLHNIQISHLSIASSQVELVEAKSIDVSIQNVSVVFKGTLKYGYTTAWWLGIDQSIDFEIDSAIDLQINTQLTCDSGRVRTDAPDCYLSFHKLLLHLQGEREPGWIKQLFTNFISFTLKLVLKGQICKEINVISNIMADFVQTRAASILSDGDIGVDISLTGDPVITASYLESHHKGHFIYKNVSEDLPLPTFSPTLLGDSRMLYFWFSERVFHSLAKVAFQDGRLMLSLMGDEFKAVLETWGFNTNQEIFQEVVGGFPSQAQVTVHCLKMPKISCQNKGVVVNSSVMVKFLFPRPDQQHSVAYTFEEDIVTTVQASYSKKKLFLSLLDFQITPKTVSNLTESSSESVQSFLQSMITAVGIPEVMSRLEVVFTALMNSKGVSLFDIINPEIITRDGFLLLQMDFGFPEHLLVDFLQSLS
Test: Assay of CETP inhibition using purified components (reconstituted buffer assay): transfer of [3H]CE from HDL to LDL
Assay type: biochemical
Design: made in house; host or cells: CHO cells (serum-free conditioned medium)
Details: 2 hours at 37°C
assay.metric: pIC50
Conceptually, pIC50 converts a concentration in mol/L into minus its log10.

Some entries whose results are on file:
- compound: "OC(CN(Cc1cccc(OC(F)(F)F)c1)c1cc(Oc2ccc(F)cc2)cc(C(F)(F)F)c1)C(F)(F)F (centres unmarked) [compound 643]"
  pIC50: 5.68
- compound: "OC(CN(Cc1ccccc1)c1cccc(Oc2ccccc2)c1)C(F)(F)F (centres unmarked) [compound 217]"
  pIC50: 4.49
- compound: "CC(C)(C)c1ccc(COc2cccc(N(Cc3cccc(OC(F)(F)C(F)F)c3)CC(O)C(F)(F)F)c2)cc1 (centres unmarked) [compound 418]"
  pIC50: 5.68
- compound: "OC(CN(Cc1cccc(F)c1)c1cccc(F)c1)C(F)(F)F (centres unmarked) [compound 18]"
  pIC50: 4.22
- compound: "CCCCOc1ccc(CN(CC(O)C(F)(F)F)c2cccc(OC(F)(F)F)c2)cc1 (centres unmarked) [compound 120]"
  pIC50: 4.30

*Q* Would you mind telling me what pIC50 value was observed for OC(CN(Cc1ccccc1)c1ccccc1)C(F)(F)F (centres unmarked) [compound 2] ?
*A* 4.00

*Q* Also OC(CN(Cc1ccc(C(F)(F)F)cc1)c1ccc(F)c(F)c1)C(F)(F)F (centres unmarked) [compound 22] ?
*A* 4.30
